Test: total protein half-life in vivo (active degradation + dilution); higher = more stable protein
Details: wild type E. coli NCM3722; growth: N-lim chemostat; doubling time 12 h
metric: total protein half-life in vivo (h)
Numeric only. Scale: h

{"columns": ["construct_sequence", "total protein half-life in vivo [h]"],
 "data": [
  ["MADVHDKATRSKNMRAIATRDTAIEKRLASLLTGQGLAFRVQDASLPGRPDFVVDEYRCVIFTHGCFWHHHHCYLFKVPATRTEFWLEKIGKNVERDRRDISRLQELGWRVLIVWECALRGREKLTDEALTERLEEWICGEGASAQIDTQGIHLLA", 5.45]
]}

Now consider the entry below.
# sequence MTAPLTLLIVEDETPLAEMHAEYIRHIPGFSQILLAGNLAQARMMIERFKPGLILLDNYLPDGRGINLLHELVQAHYPGDVVFTTAASDMETVSEAVRCGVFDYLIKPIAYERLGQTLTRFRQRKHMLESIDSASQKQIDEMFNAYARGEPKDELPTGIDPLTLNAVRKLFKEPGVQHTAETVAQALTISRTTARRYLEYCASRHLIIAEIVHGKVGRPQRIYHSG [P0AEF4] ; its total protein half-life in vivo = 5.34

====

In this section we review reported total protein half-life in vivo values for a set of sequences.
Experiment: total protein half-life in vivo (active degradation + dilution); higher = more stable protein
Details: wild type E. coli NCM3722; growth: C-lim chemostat; doubling time 6 h
Numeric only. Scale: h

Some sequences with known total protein half-life in vivo results, for comparison:
{"columns": ["construct_sequence", "result_units", "total protein half-life in vivo"],
 "data": [
  ["MSLPMLQVALDNQTMDSAYETTRLIAEEVDIIEVGTILCVGEGVRAVRDLKALYPHKIVLADAKIADAGKILSRMCFEANADWVTVICCADINTAKGALDVAKEFNGDVQIELTGYWTWEQAQQWRDAGIGQVVYHRSRDAQAAGVAWGEADITAIKRLSDMGFKVTVTGGLALEDLPLFKGIPIHVFIAGRSIRDAASPVEAARQFKRSIAELWG", "h", 5.11],
  ["MERNVTLDFVRGVAILGILLLNISAFGLPKAAYLNPAWYGAITPRDAWTWAFLDLIGQVKFLTLFALLFGAGLQMLLPRGRRWIQSRLTLLVLLGFIHGLLFWDGDILLAYGLVGLICWRLVRDAPSVKSLFNTGVMLYLVGLGVLLLLGLISDSQTSRAWTPDASAILYEKYWKLHGGVEAISNRADGVGNSLLALGAQYGWQLAGMMLIGAALMRSGWLKGQFSLRHYRRTGFVLVAIGVTINLPAIALQWQLDWAYRWCAFLLQMPRELSAPFQAIGYASLFYGFWPQLSRFKLVLAIACVGRMALTNYLLQTLICTTLFYHLGLFMHFDRLELLAFVIPVWLANILFSVIWLRYFRQGPVEWLWRQLTLRAAGPAISKTSR", "h", 6.47]
]}

# sequence MSIRIIPQDELGSSEKRTADMIPPLLFPRLKNLYNRRAERLRELAENNPLGDYLRFAALIAHAQEVVLYDHPLEMDLTARIKEASAQGKPPLDIHVLPRDKHWQKLLMALIAELKPEMSGPALAVIENLEKASTQELEDMASALFASDFSSVSSDKAPFIWAALSLYWAQMANLIPGKARAEYGEQRQYCPVCGSMPVSSMVQIGTTQGLRYLHCNLCETEWHVVRVKCSNCEQSGKLHYWSLDDEQAAIKAESCDDCDTYLKILYQEKDPKIEAVADDLASLVLDARMEQEGYARSSINPFLFPGEGE ; its total protein half-life in vivo = 3.48

# sequence MDKIHAMQLFIKVAELESFSRAADFFALPKGSVSRQIQALEHQLGTQLLQRTTRRVKLTPEGMTYYQRAKDVLSNLSELDGLFQQDATSISGKLRIDIPPGIAKSLLLPRLSEFLYLHPGIELELSSHDRPVDILHDGFDCVIRTGALPEDGVIARPLGKLTMVNCASPHYLTRFGYPQSPDDLTSHAIVRYTPHLGVHPLGFEVASVNGVQWFKSGGMLTVNSSENYLTAGLAGLGIIQIPRIAVREALRAGRLIEVLPGYRAEPLSLSLVYPQRRELSRRVNLFMQWLAGVMKEYLD ; its total protein half-life in vivo = 3.43

Entry source: the supplement of paper PMC11246515
